target: human V1a receptor (Homo sapiens, UniProt P37288); assay: Cellular in vitro assay for determining vasopressin receptor activity, V1a receptor cell line (photoprotein luminescence); type: cell-based; conditions: selectivity ratio of the cellular IC50 values
Sequence (P37288 whole entry): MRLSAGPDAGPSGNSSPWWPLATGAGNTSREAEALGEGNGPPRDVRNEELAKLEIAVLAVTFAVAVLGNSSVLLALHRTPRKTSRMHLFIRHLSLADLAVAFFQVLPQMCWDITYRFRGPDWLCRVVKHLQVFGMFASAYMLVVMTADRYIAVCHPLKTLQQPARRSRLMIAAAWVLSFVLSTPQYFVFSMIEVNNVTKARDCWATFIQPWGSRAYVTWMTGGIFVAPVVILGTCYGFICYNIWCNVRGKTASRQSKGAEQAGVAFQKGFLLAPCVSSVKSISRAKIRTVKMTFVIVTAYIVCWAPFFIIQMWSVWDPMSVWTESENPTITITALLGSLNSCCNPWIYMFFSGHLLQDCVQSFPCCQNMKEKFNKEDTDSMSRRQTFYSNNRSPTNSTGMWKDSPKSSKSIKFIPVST
measure_name: ratio IC50 hV2/hV1a

# compound, ratio IC50 hV2/hV1a
records = [
    ("O=c1n(Cc2nc(N3CCNC(C(F)(F)F)C3)n(-c3ccccc3Cl)n2)nc(-c2ccc(Cl)cc2)n1C[C@H](O)C(F)(F)F (mixture of isomers) [Example 66]", 18.9),
    ("O=c1n(Cc2nc(N3CCCC3)n(-c3cccc(Cl)c3)n2)nc(-c2ccc(Cl)cc2)n1C[C@H](O)C(F)(F)F [Example 117]", 0.3),
    ("CC(C)(N)CNc1nc(Cn2nc(-c3ccc(Cl)cc3)n(C[C@H](O)C(F)(F)F)c2=O)nn1-c1ccccc1Cl [Example 32]", 71.2),
    ("NCC(O)CNc1nc(Cn2nc(-c3ccc(Cl)cc3)n(C[C@H](O)C(F)(F)F)c2=O)nn1-c1ccccc1Cl (mixture of isomers) [Example 11]", 5.0),
    ("NC(CNc1nc(Cn2nc(-c3ccc(Cl)cc3)n(C[C@H](O)C(F)(F)F)c2=O)nn1-c1ccccc1Cl)C(F)(F)F (mixture of isomers) [Example 6]", 8.9),
    ("O=C1NCC2(CN(c3nc(Cn4nc(-c5ccc(Cl)cc5)n(C[C@H](O)C(F)(F)F)c4=O)nn3-c3ccccc3Cl)C2)N1 [Example 35]", 12.6),
    ("O=c1n(Cc2nc(NCC3(O)CC3)n(-c3ccccc3Cl)n2)nc(-c2ccc(Cl)cc2)n1C[C@H](O)C(F)(F)F [Example 54]", 2.9),
]

(a) CC(C)(N)CNc1nc(Cn2nc(-c3ccc(Cl)cc3)n(C[C@H](O)C(F)(F)F)c2=O)nn1-c1ccccn1 [Example 93]
(b) O=c1n(Cc2nc(NCCO)n(-c3cccc(F)c3)n2)nc(-c2ccc(Cl)cc2)n1C[C@H](O)C(F)(F)F [Example 123]
(c) O=c1n(Cc2nc(N3CCCC3)n(-c3ccccc3Cl)n2)nc(-c2ccc(Cl)cc2)n1C[C@H](O)C(F)(F)F [Example 87]
(d) O=C1CN(c2nc(Cn3nc(-c4ccc(Cl)cc4)n(C[C@H](O)C(F)(F)F)c3=O)nn2-c2ncccc2Cl)CCN1 [Example 97]
// query Arrange the 4 compounds from largest to smallest ratio IC50 hV2/hV1a. Answer by listing the labels in the requested order.
// result d, a, c, b
(d: 176.9, a: 112.5, c: 11.1, b: 2.1)
